The reported numbers originate from ChEMBL document CHEMBL4715693.

# measurement-protocol: Selectivity index, ratio of MCC for human HeLa cells to EC50 for Respiratory syncytial virus infected in human HeLa cells
# Assay type: toxicity, cell-based
Please go through the items and note down their selectivity ratio.

Problem: Bench note: what selectivity ratio did C=CCNC(=S)NNC(=O)c1[nH]c2ccc(F)cc2c1-c1ccccc1 show?
Solution: ≥ 5

Problem: Requested field: selectivity ratio. Item: CCCNC(=S)NNC(=O)c1[nH]c2ccc(F)cc2c1-c1ccccc1
Solution: ≥ 9

Problem: Which value of selectivity ratio has been reported for CCNC(=S)NNC(=O)c1[nH]c2ccc(F)cc2c1-c1ccccc1 in the records?
Solution: ≥ 5

###

# Tested on: Coxsackievirus B4
# measurement-protocol: Antiviral activity against Human coxsackievirus B4 infected in African green monkey Vero cells assessed as reduction in virus-induced cytopathic effect incubated for 3 to 6 days by light microscopic analysis
# Format: functional, organism-based
# applied-conditions: Enterovirus B
Assign EC50 to each entry below.

Problem: Look up EC50: CCN1C(=O)CS/C1=N\NC(=O)c1[nH]c2ccc(F)cc2c1-c1ccccc1
Solution: > 100 µg/mL

Problem: Can you share its EC50? I mean this compound: CCCNC(=S)NNC(=O)c1[nH]c2ccc(F)cc2c1-c1ccccc1
Solution: 1.8 µg/mL

Problem: Record request: EC50 value, item CNC(=S)NNC(=O)c1[nH]c2ccc(F)cc2c1-c1ccccc1
Solution: 1.7 µg/mL

Problem: Given the entry C=CCN1C(=O)CS/C1=N\NC(=O)c1[nH]c2ccc(F)cc2c1-c1ccccc1 , report its measured EC50.
Solution: > 100 µg/mL

Problem: Given the compound O=C(N/N=C1\SCC(=O)N1Cc1ccccc1)c1[nH]c2ccc(F)cc2c1-c1ccccc1 , what is its reported EC50?
Solution: > 100 µg/mL

Problem: Consider the compound shown here: CCCN1C(=O)CS/C1=N\NC(=O)c1[nH]c2ccc(F)cc2c1-c1ccccc1 What is its recorded EC50?
Solution: > 100 µg/mL

Problem: Can you share its EC50? I mean this compound: CN1C(=O)CS/C1=N\NC(=O)c1[nH]c2ccc(F)cc2c1-c1ccccc1
Solution: > 100 µg/mL

Problem: Report EC50 for O=C(NNC(=S)NCCc1ccccc1)c1[nH]c2ccc(F)cc2c1-c1ccccc1 please.
Solution: > 100 µg/mL

Problem: Query: EC50; subject: CCCCN1C(=O)CS/C1=N\NC(=O)c1[nH]c2ccc(F)cc2c1-c1ccccc1
Solution: > 100 µg/mL

Problem: I would be grateful if you could share the reported EC50 for NC(=O)c1ncn([C@@H]2O[C@H](CO)[C@@H](O)[C@H]2O)n1 .
Solution: > 250 µM

Problem: Bench note: what EC50 did CCNC(=S)NNC(=O)c1[nH]c2ccc(F)cc2c1-c1ccccc1 show?
Solution: 0.4 µg/mL

Problem: For the compound O=C(N/N=C1\SCC(=O)N1CCc1ccccc1)c1[nH]c2ccc(F)cc2c1-c1ccccc1 , what EC50 is on record?
Solution: > 100 µg/mL

Problem: Fill blank: measured EC50 of the compound C=CCNC(=S)NNC(=O)c1[nH]c2ccc(F)cc2c1-c1ccccc1 is ____.
Solution: 2 µg/mL

Problem: Would you mind telling me what EC50 value was observed for CCCCNC(=S)NNC(=O)c1[nH]c2ccc(F)cc2c1-c1ccccc1 ?
Solution: > 100 µg/mL

Problem: Which measured EC50 value corresponds to O=C(NNC(=S)NCc1ccccc1)c1[nH]c2ccc(F)cc2c1-c1ccccc1 ?
Solution: > 100 µg/mL
